# METHOD NOTES: qHTS of pediatric cancer cell lines to identify multiple opportunities for drug repurposing: Primary screen for SK-N-MC cells (AID 1347093); further: potency means the concentration at half of the fitted maximal effect
# CONDITION PARAMETERS: SK-N-MC viability, CellTiter-Glo luminescence, 48 h; series mostly up to 46 µM
Inconclusive results are not listed. Active and inactive are the calls of the source. The call rests on the fitted dose curve; in most records, active means well fitted cell-killing curve with a large enough effect; inconclusive means small, poorly fitted or top-dose-only effect; inactive means no such curve, though single readings can be large or run the other way.
OBSERVATION TYPE: Potency

Worked examples, 4 molecules total:
O=C(Nc1ccccc1)Nc1ccc(-c2ccc(C(=O)[C@H]3CCC[C@H]3C(=O)O)cc2)cc1 = 1.87 µM (active)
COc1cc(N2CCN(C)CC2)ccc1Nc1nc(N)c(C(=O)c2c(Cl)cccc2Cl)s1 = 16.6 µM (active)
CN1CCN2c3ncccc3Cc3ccccc3C2C1 (stereo not given) = inactive
CSc1cccc(Nc2ncc3cc(-c4c(Cl)cccc4Cl)c(=O)n(C)c3n2)c1 = 0.0935 µM (active)

// switching to the query molecule
(Q) Look up and report measured Potency for this entry: CC=C1C2C=C(C)CC1(N)c1ccc(=O)[nH]c1C2 (stereo not given)
(A) inactive

###

# METHOD NOTES: Quantitative High-Throughput drug screen in 47 multiple myeloma cell lines against the NCATS MIPE library collection: KMS28PE_JCRB cell viability assay (AID 1918983); further: nearly all actives have a fitted effect of over 35% in size
# CONDITION PARAMETERS: KMS28PE multiple myeloma viability, CellTiter-Glo ATP, 48 h; series mostly up to 45.8 µM
Inconclusive results are not listed. Activity calls are given as the source filed them. Calls come from the whole dose curve; as a rule, active = well fitted cell-killing curve with a large enough effect; inconclusive = small, poorly fitted or top-dose-only effect, or effect the other way; inactive = no such curve, though single readings can be large or run the other way.
Outcomes you can answer with include only these: class 1 (active), class 0 (inactive)

Some solved entries appear below for comparison.
Cc1cnc(CNC(=O)c2c(=O)c3ccc(N4CCCN(C)CC4)nc3n3c2sc2ccccc23)cn1 = class 1
O=C(O)CCC=CCC[C@@H]1[C@H](N2CCCCC2)[C@@H](O)C[C@@H]1OCc1ccc(-c2ccccc2)cc1 = class 0
O=C(CCCN1CCN(c2ccc(F)cc2)CC1)NC1c2ccccc2CSc2ccccc21 (stereo not given) = class 1

(Q) # lookup: test call for CN(C)c1ccccc1CN1CCCN(Cc2ccccc2N(C)C)C1c1ccncc1
(A) class 1

(Q) # lookup: test call for Cc1c(C(=O)Nc2ccc(N3C[C@@H](C)O[C@@H](C)C3)nc2)cccc1-c1ccc(OC(F)(F)F)cc1
(A) class 1

###

# METHOD NOTES: Cell Proliferation Assay against the TMD8 Cell Line (Caspase readout at 16 hrs) (AID 651712); further: potency means the concentration at half of the fitted maximal effect;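 on caspase activation: 0% = DMSO and 100% = 9.2 µM bortezomib caspase activation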
# CONDITION PARAMETERS: TMD8 lymphoma cells, caspase activation luminescence; series mostly up to 46.1 µM
Records with an inconclusive call do not appear. Active and inactive are the calls of the source. Calls follow the shape of the dose curve; as a rule, active = well fitted activation curve with a large enough effect; inconclusive = small, poorly fitted or top-dose-only effect; inactive = flat fitted curve, though single readings scatter.
OBSERVATION TYPE: Potency

Worked examples, 5 compounds total:
Cc1csc(-c2nnc(Nc3ccc(Oc4ncccc4-c4ccnc(N)n4)cc3)c3ccccc23)c1 = 23.5 µM (active)
CC(C)Oc1cc(Nc2nc(N[C@@H](C)c3ccc(F)cn3)ncc2Cl)[nH]n1 = inactive
COc1nc(C)cnc1NS(=O)(=O)c1cccnc1-c1ccc(-c2nnco2)cc1 = inactive
CC(O)=C(C#N)C(=O)Nc1ccc(C(F)(F)F)cc1 = inactive
O=C(Nc1cccc(Cl)c1)Nc1ncc(CCNc2ncnc3ccsc23)s1 = inactive

(Q) Look up and report measured Potency for this entry: CCCCc1ccc(NS(=O)(=O)c2ccc(C)c(C(=O)N3CCN(c4cccc(C)c4C)CC3)c2)cc1
(A) 20.9 µM (active)

(Q) Look up and report measured Potency for this entry: CCCCn1c(=O)n(Cc2ccccc2F)c(=O)c2[nH]c(Cc3ccc(NC(C)=O)cc3)nc21
(A) inactive

(Q) Look up and report measured Potency for this entry: Cc1cc2c(cc1C1(c3ccc(C(=O)O)cn3)CC1)C(C)(C)CCC2(C)C
(A) inactive

(Q) Look up and report measured Potency for this entry: Nc1ccc(-c2ccc3ncc4ccc(=O)n(-c5cccc(C(F)(F)F)c5)c4c3c2)cn1
(A) 0.118 µM (active)

(Q) Look up and report measured Potency for this entry: CCC(=O)N1CCN(c2ccc(-n3c(=O)ccc4cnc5ccc(-c6cnc7ccccc7c6)cc5c43)cc2C(F)(F)F)CC1
(A) 18.7 µM (active)

###

# METHOD NOTES: qHTS profiling for inhibitors of Plasmodium falciparum (DD2) proliferation (AID 743323)
# CONDITION PARAMETERS: lower = more inhibition; at 28.7 µM (top of the series) unless noted
Quick rule for you: activity, percent of control under 20% gets true (1), anything else gets false (0).

Cc1ccc(NC(=O)c2ccc(CN3CCN(C)CC3)cc2)cc1Nc1nc(-c2cccnc2)cs1 = true (1)
COc1cc2nccc(Oc3ccc(NC(=O)Nc4cc(C)on4)c(Cl)c3)c2cc1OC = false (0)
COc1c(C)cnc(Cn2cnc3c(Cl)nc(N)nc32)c1C = false (0)

(Q) API: query returns whether the molecule falls strictly under 20% in activity, percent of control. Query: Clc1ccc(COC(Cn2ccnc2)c2ccc(Cl)cc2Cl)c(Cl)c1 (centres undefined)
(A) true (1)

(Q) API: query returns whether the molecule falls strictly under 20% in activity, percent of control. Query: Cc1nn(Cc2ccccc2Cl)c(C)c1CN(C)CC(O)COc1ccc(Cl)cc1 (centres undefined)
(A) true (1)

(Q) API: query returns whether the molecule falls strictly under 20% in activity, percent of control. Query: C=C[C@@H]1CN2CCC1C[C@@H]2C(O)c1ccnc2ccc(OC)cc12 (some centres undefined)
(A) true (1)

(Q) API: query returns whether the molecule falls strictly under 20% in activity, percent of control. Query: CNC(=O)c1cc(COc2nnc(Nc3ccc(Cl)cc3)c3ccoc23)ccn1
(A) false (0)

(Q) API: query returns whether the molecule falls strictly under 20% in activity, percent of control. Query: Cc1c(C(=O)Nc2ccc(N3C[C@@H](C)O[C@@H](C)C3)nc2)cccc1-c1ccc(OC(F)(F)F)cc1
(A) false (0)

(Q) API: query returns whether the molecule falls strictly under 20% in activity, percent of control. Query: Cc1csc(-c2nnc(Nc3ccc(Oc4ncccc4-c4ccnc(N)n4)cc3)c3ccccc23)c1
(A) false (0)

(Q) API: query returns whether the molecule falls strictly under 20% in activity, percent of control. Query: CCNC(=O)c1noc(-c2cc(C(C)C)c(O)cc2O)c1-c1ccc(CN2CCOCC2)cc1
(A) true (1)

(Q) API: query returns whether the molecule falls strictly under 20% in activity, percent of control. Query: CCCCn1c(=O)n(Cc2ccccc2F)c(=O)c2[nH]c(Cc3ccc(NC(C)=O)cc3)nc21
(A) false (0)

(Q) API: query returns whether the molecule falls strictly under 20% in activity, percent of control. Query: CN(C)CCN(C)C(=O)c1ccc(NC(=O)Nc2ccc(-c3nc(N4CCOCC4)c4ccn(CC(F)(F)F)c4n3)cc2)cc1
(A) true (1)

(Q) API: query returns whether the molecule falls strictly under 20% in activity, percent of control. Query: CCC=CC[C@H]1C(=O)CC[C@@H]1CC(=O)OC
(A) false (0)

(Q) API: query returns whether the molecule falls strictly under 20% in activity, percent of control. Query: CN1C(=O)C(Cc2c[nH]c3ccccc23)NC1=S (centres undefined)
(A) false (0)

###

# METHOD NOTES: Quantitative High-Throughput drug screen in 47 multiple myeloma cell lines against the NCATS MIPE library collection: XG6_PLB cell viability assay (AID 1919865); further: nearly all actives have a fitted effect of over 40% in size
# CONDITION PARAMETERS: XG6 myeloma viability, CellTiter-Glo ATP luminescence, 48 h; series mostly up to 45.8 µM
Results filed as inconclusive are left out. Activity calls are given as the source filed them. Calls follow the shape of the dose curve; as a rule, active = well fitted cell-killing curve with a large enough effect; inconclusive = small, poorly fitted or top-dose-only effect, or effect the other way; inactive = no such curve, though single readings can be large or run the other way.
Outcomes you can answer with include only these: yes (1) (active), no (0) (inactive)

NC(=O)c1noc([C@H](CCCC2CCCCC2)CC(=O)NO)n1 = yes (1)

(Q) # lookup: test call for Cc1cc(-c2ncc(CC(=O)Nc3ccc(-c4cnccn4)cn3)cc2C)ccn1
(A) yes (1)

(Q) # lookup: test call for CCN(CCO)CCCOc1ccc2c(Nc3cc(CC(=O)Nc4cccc(F)c4)[nH]n3)ncnc2c1
(A) yes (1)

(Q) # lookup: test call for CCC(=C(c1ccc(O)cc1)c1ccc(OCCNC)cc1)c1ccccc1
(A) yes (1)

(Q) # lookup: test call for CCCCC[C@H](O)C=C[C@H]1[C@H](O)CC(=O)[C@H]1CCCCCCC(=O)O
(A) no (0)

(Q) # lookup: test call for CN[C@@H](C)[C@H]1[C@H](O)C[C@@]2(C)[C@@H]3CC[C@H]4C(C)(C)[C@@H](NC)CC[C@@]45C[C@@]35CC[C@]12C
(A) yes (1)

(Q) # lookup: test call for Cc1ccc(S(=O)(=O)OCC(=O)Nc2ccc(C(=O)O)c(O)c2)cc1
(A) yes (1)

(Q) # lookup: test call for CCCC1OC2C[C@@H]3[C@H]4CCC5=CC(=O)C=C[C@]5(C)[C@H]4C(O)C[C@]3(C)[C@]2(C(=O)CO)O1 (stereo partly drawn)
(A) no (0)

(Q) # lookup: test call for OCCn1cc(-c2ccc3c(c2)CCC3=NO)c(-c2ccncc2)n1
(A) yes (1)

(Q) # lookup: test call for O[C@@H](COc1cccc2ncccc12)CN1CCN(C2c3ccccc3[C@@H]3[C@H](c4ccccc42)C3(F)F)CC1 (stereo partly drawn)
(A) yes (1)

(Q) # lookup: test call for Nc1ncnc2c1c(-c1cccc(OCc3ccccc3)c1)cn2C1CC(CN2CCC2)C1 (stereo not drawn)
(A) yes (1)

(Q) # lookup: test call for NC(N)=Nc1nc(CSCCC(N)=NS(N)(=O)=O)cs1
(A) yes (1)

(Q) # lookup: test call for Cc1nc(NC(=O)N2CCC[C@@H]2C(N)=O)sc1-c1csc(C(C)(C)C)n1
(A) yes (1)

(Q) # lookup: test call for COc1cc([C@H]2Oc3cc([C@H]4Oc5cc(O)cc(O)c5C(=O)[C@H]4O)ccc3O[C@H]2CO)ccc1O
(A) yes (1)

(Q) # lookup: test call for CCCCC(C)(C)[C@H](O)C=C[C@H]1[C@H](O)CC(=O)[C@H]1CC=CCCCC(=O)O
(A) yes (1)
